# Test system: Chromo domain-containing protein 1 (Saccharomyces cerevisiae (strain ATCC 204508 / S288c) (Baker's yeast)) (UniProt P32657)
# Sequence (P32657 whole entry, the tested form may be a part): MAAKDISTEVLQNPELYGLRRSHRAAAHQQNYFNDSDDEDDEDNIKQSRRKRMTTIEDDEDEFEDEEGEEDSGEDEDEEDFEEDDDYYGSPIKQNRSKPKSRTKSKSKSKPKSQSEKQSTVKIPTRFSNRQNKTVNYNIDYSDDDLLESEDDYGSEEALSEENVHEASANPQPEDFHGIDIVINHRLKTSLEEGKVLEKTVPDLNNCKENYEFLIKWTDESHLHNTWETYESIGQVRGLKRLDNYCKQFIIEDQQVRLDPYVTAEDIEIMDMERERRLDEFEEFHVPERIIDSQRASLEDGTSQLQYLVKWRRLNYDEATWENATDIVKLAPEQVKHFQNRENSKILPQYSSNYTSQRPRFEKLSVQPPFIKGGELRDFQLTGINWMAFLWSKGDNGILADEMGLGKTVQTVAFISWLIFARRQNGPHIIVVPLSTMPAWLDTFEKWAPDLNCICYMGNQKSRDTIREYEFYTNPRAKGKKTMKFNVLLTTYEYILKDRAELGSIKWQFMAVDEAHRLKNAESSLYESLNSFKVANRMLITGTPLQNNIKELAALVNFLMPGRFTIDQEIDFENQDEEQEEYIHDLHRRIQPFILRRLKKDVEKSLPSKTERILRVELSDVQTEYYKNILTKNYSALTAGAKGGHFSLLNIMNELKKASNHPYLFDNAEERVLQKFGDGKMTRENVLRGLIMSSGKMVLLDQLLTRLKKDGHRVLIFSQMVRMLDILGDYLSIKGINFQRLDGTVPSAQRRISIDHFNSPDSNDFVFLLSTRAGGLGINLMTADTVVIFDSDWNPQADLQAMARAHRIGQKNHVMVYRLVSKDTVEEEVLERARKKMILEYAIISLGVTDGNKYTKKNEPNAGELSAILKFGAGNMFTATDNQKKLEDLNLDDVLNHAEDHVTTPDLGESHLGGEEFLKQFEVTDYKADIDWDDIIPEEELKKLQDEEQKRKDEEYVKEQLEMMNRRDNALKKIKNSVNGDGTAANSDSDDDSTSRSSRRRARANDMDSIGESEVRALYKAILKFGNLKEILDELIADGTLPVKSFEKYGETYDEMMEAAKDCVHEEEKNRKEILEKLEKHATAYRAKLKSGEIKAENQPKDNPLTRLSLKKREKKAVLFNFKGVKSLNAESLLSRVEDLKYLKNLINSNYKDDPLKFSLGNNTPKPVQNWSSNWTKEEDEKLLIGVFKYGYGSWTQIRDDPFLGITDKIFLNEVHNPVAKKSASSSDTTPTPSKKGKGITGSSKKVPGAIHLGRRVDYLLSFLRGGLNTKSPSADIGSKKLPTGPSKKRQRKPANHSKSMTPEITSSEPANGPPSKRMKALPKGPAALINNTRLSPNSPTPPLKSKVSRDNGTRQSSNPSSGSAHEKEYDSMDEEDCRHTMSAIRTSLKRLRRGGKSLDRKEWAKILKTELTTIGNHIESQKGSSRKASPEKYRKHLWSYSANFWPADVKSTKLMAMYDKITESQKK
# Method summary: ScCHD-1 Enzyme Inhibition Assay; also: in the data most compounds retested in dose-response had high values
# Format: functional
# Parameters: scale not given: direction of the effect not stated beside the values
# Condition summary: 30 µM

>  <Compound>
Cc1cccc(CS(=O)(=O)CC(=O)NCCCOC(C)C)c1

>  <Percent Effect, %>
-10.7

$$$$
>  <Compound>
CCC(=O)N1CCC(c2nc3ccc(NC(C)C)cn3n2)CC1

>  <Percent Effect, %>
-4.18

$$$$
>  <Compound>
CN(C)C(=O)NC1COC2(CCN(C(=O)Nc3ccccc3)CC2)C1 (configuration not stated)

>  <Percent Effect, %>
2.03

$$$$
>  <Compound>
Cc1nc[nH]c1CN1CCN(C(=O)c2cccs2)[C@H]2CS(=O)(=O)C[C@H]21

>  <Percent Effect, %>
-2.09

$$$$
>  <Compound>
Cc1cccc(CNC(=O)CNc2cc(CO)ccc2Cl)c1

>  <Percent Effect, %>
-2.84

$$$$
>  <Compound>
Cc1ccc(-c2nc(CN3CCCC3Cn3cc(C)cn3)no2)cc1 (configuration not stated)

>  <Percent Effect, %>
-12

$$$$
>  <Compound>
O=C(NCC1(N2CCOCC2)CCSC1)Nc1ccc(F)cc1 (configuration not stated)

>  <Percent Effect, %>
-1.18

$$$$
>  <Compound>
CC(Cn1cccn1)NC(=O)N1CCN(Cc2cccs2)CC1 (configuration not stated)

>  <Percent Effect, %>
71.3

$$$$
>  <Compound>
Cn1cnc2c1CCN(Cc1ccc(C(=O)N3CCCC3)cc1)C2

>  <Percent Effect, %>
-0.499

$$$$
>  <Compound>
O=C(Cc1ccccc1F)N1CCN(C(=O)c2cccc(F)c2)CC1

>  <Percent Effect, %>
27.2

$$$$
>  <Compound>
COCC(=O)N1CCC2(CC1)CC(CC(=O)NC1CC1)c1ccccc12 (configuration not stated)

>  <Percent Effect, %>
-0.682

$$$$
>  <Compound>
O=C(Cn1cc(-c2ccccc2)ncc1=O)Nc1nnc[nH]1

>  <Percent Effect, %>
83.7

$$$$

====

# Test system: Ubiquitin-activating enzyme e1, putative (Leishmania donovani (strain BPK282A1))
# Sequence (whole entry): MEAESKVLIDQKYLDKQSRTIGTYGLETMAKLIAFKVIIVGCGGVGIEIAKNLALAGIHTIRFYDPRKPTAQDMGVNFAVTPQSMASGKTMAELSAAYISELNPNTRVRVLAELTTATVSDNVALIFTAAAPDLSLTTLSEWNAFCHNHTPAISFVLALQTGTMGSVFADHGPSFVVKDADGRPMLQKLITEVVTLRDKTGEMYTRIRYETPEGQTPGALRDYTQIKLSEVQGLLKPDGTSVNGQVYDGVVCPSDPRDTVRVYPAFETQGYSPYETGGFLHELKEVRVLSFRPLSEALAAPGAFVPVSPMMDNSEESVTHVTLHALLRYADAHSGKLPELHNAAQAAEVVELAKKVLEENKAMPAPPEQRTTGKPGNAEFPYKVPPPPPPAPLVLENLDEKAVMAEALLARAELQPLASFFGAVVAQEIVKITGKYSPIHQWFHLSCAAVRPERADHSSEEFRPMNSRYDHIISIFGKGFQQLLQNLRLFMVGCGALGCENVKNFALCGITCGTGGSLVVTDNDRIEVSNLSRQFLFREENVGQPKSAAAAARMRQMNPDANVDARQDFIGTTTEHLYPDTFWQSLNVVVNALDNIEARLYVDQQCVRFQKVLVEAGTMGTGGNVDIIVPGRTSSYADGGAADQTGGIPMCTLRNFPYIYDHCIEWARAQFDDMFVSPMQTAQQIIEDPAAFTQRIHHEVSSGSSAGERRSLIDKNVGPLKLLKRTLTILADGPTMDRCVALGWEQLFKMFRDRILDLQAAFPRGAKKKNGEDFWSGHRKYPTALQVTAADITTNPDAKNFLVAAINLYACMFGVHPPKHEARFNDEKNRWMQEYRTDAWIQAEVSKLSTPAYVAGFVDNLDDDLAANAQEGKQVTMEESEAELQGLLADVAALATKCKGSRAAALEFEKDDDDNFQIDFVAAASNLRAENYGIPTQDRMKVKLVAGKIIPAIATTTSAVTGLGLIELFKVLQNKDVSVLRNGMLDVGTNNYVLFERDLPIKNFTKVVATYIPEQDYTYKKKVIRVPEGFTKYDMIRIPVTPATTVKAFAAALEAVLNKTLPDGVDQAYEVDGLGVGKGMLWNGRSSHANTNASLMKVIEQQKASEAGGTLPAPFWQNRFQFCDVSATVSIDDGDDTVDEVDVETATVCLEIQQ
# Method summary: Leishmania donovani Ubiquitin Activating Enzyme (LdE1)
# Format: functional
# Set-up: scale not given: direction of the effect not stated beside the values
# Condition summary: 30 µM
Results with a measured potency or affinity are listed apart.

>  <Compound>
Cc1cccc(-c2ccc(C(=O)NCCN(C)C3CC3)c(=O)[nH]2)c1

>  <Output unit>
%

>  <Percent Effect>
0

$$$$
>  <Compound>
CCCOc1cc(C)ccc1NC(=O)NCCC(=O)N(C)C

>  <Output unit>
%

>  <Percent Effect>
13.7

$$$$
>  <Compound>
CN1CCC(Cc2cc(Nc3ncccn3)ncn2)CC1

>  <Output unit>
%

>  <Percent Effect>
6.76

$$$$
>  <Compound>
N#Cc1ccccc1N1CCCN(C(=O)CCc2nccs2)CC1

>  <Output unit>
%

>  <Percent Effect>
12.7

$$$$
>  <Compound>
CN(Cc1cnccn1)C(=O)c1ccnc(OC2CCC2)c1

>  <Output unit>
%

>  <Percent Effect>
-2.7

$$$$
>  <Compound>
Cc1c(Br)cccc1C(=O)NC(C)CN1CCCC1=O (stereo not given)

>  <Output unit>
%

>  <Percent Effect>
2.74

$$$$
>  <Compound>
Cn1cc(C[C@H]2[C@H](N3CCOCC3)CCN2C(=O)c2ccco2)cn1

>  <Output unit>
%

>  <Percent Effect>
5.33

$$$$
>  <Compound>
Cc1nc(C)c(CNC(=O)NC(c2nnc3n2CCC3)C(C)C)s1 (stereo not given)

>  <Output unit>
%

>  <Percent Effect>
0

$$$$
>  <Compound>
Cc1ncsc1C(=O)N(Cc1cccnc1)C1CC1

>  <Output unit>
%

>  <Percent Effect>
2.56

$$$$
>  <Compound>
O=C(NCc1nn(-c2ccccc2)c2c1CCC2)NC1CC1

>  <Output unit>
%

>  <Percent Effect>
2.56

$$$$
>  <Compound>
Cc1noc(C(C)C)c1C(=O)N1CCCN(Cc2cscn2)CC1

>  <Output unit>
%

>  <Percent Effect>
18.2

$$$$
>  <Compound>
N#Cc1ccc(OCCOc2ccccc2C(=O)N2CCOCC2)cc1

>  <Output unit>
%

>  <Percent Effect>
7.79

$$$$
>  <Compound>
Cc1ccc(OCCC(=O)N2CCN(c3cnccn3)CC2)cc1C

>  <Output unit>
%

>  <Percent Effect>
13

$$$$
>  <Compound>
COC(=O)c1sccc1S(=O)(=O)N1CCC(Oc2cccnn2)CC1

>  <Output unit>
%

>  <Percent Effect>
-5.48

$$$$
>  <Compound>
N#CCCN(CCC#N)C(=O)CN1CCCC1Cc1cccc(F)c1 (stereo not given)

>  <Output unit>
%

>  <Percent Effect>
0

$$$$
